Reference source for all entries: patent US9370515B2

molecular target: MLK-3 (Homo sapiens, UniProt Q16584); experiment: Biochemical assay for the inhibition of kinase activity for MLK-3 (33P-ATP, HOTSPOT filter binding); conditions: activated MLK-3 20 nM, ATP 50 μM, myelin basic protein 20 μM, 20 minutes room temperature
Sequence (Q16584 whole entry): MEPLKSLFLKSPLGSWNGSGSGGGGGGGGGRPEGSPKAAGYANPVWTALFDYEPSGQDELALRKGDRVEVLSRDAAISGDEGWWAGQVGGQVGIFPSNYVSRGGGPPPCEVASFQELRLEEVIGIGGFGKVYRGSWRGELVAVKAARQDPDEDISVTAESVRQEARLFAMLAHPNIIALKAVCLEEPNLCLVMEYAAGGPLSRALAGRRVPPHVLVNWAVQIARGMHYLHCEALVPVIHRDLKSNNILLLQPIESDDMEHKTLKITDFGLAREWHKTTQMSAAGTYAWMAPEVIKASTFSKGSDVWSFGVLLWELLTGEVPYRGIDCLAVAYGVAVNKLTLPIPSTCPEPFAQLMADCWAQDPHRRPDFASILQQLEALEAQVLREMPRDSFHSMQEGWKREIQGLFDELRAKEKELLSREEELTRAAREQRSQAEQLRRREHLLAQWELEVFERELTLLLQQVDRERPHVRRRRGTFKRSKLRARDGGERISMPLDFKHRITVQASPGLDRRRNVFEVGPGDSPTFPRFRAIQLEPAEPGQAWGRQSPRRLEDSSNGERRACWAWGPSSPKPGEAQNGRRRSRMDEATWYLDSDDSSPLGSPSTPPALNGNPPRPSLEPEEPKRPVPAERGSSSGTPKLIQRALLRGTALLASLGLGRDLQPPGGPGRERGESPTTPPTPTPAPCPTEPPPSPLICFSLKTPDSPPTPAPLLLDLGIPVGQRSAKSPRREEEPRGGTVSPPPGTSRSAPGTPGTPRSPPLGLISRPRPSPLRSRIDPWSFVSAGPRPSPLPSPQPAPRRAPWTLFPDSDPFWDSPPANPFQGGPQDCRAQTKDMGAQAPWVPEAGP
pIC50: −log10 of the molar value.
Value Kind: pIC50

# Compound, pIC50
measured = [
    ("CCCN(C)c1ccc2ncc(-c3cc4ccccc4s3)n2n1", "> 5.30"),
    ("O[C@H]1CC[C@H](Nc2ccc3ncc(-c4cc5ncccc5s4)n3n2)CC1", "6.00 to 6.30"),
    ("COc1cncc2cc(-c3cnc4ccc(N[C@H]5CC[C@H](OC)CC5)nn34)sc12", "6.30 to 7.00"),
    ("COc1ccc2sc(-c3cnc4ccc(Nc5ccc(OC)c(OC)c5)nn34)cc2c1", "6.30 to 7.00"),
]

Output pIC50 of COc1ccc(Nc2ccc3ncc(-c4cc5ccccc5s4)n3n2)cc1O
> 5.30

Indicate its recorded pIC50; the compound in question is CN1CCN(Cc2cccc(-c3ccc4ncc(-c5cc6ccccc6s5)n4n3)c2)CC1
> 5.30

====

target: MLK-3 (Homo sapiens); assay: Biochemical assay for the inhibition of kinase activity for MLK-3 (33P-ATP, HOTSPOT filter binding); settings: activated MLK-3 20 nM, ATP 50 μM, myelin basic protein 20 μM, 20 minutes room temperature
pIC50: −log10 of the molar value.
# pIC50 listing for each entry below

Some entries whose results are on file:
# Compound, pIC50
data = [
    ("Cc1cncc2cc(-c3cnc4ccc(N[C@H]5CC[C@H](O)CC5)nn34)sc12", "> 7.00"),
    ("COc1cccc2cc(-c3cnc4ccc(N[C@H]5CC[C@H](OC)CC5)nn34)sc12", "6.00 to 6.30"),
    ("COC(=O)c1cccc(Nc2ccc3ncc(-c4ccc5[nH]ccc5c4)n3n2)c1", "> 5.30"),
    ("OC[C@H]1CC[C@H](Nc2ccc3ncc(-c4cc5ccccc5s4)n3n2)CC1", "6.30 to 7.00"),
    ("Oc1cccc(-c2cnc3ccc(N[C@H]4CC[C@H](O)CC4)nn23)c1", "> 5.30"),
]

Using known records, supply pIC50 for COc1cc(Nc2ccc3ncc(-c4cc5ccccc5s4)n3n2)ccn1
> 5.30

Identify measured pIC50 corresponding to COc1ccc(Nc2ccc3ncc(-c4cc5c(OC)c(OC)c(OC)cc5s4)n3n2)cc1OC
> 5.30

Look up and state reported pIC50 for COc1cc2cc(-c3cnc4ccc(N(C)[C@H]5CC[C@H](OC)CC5)nn34)sc2cc1OC
> 7.00

Provide pIC50 value for the following compound: O[C@H]1CC[C@H](Nc2ccc3ncc(-c4cc5ccccc5[nH]4)n3n2)CC1
6.30 to 7.00

====

Measured IC50 of individual entries
biological target: MLK-3 (Homo sapiens, UniProt Q16584); test: Biochemical assay for the inhibition of kinase activity for MLK-3 (33P-ATP, HOTSPOT filter binding); conditions: activated MLK-3 20 nM, ATP 50 μM, myelin basic protein 20 μM, 20 minutes room temperature

# Compound, IC50
measured = [
    ("O=c1cc(Nc2ccc3ncc(-c4cc5ccccc5s4)n3n2)cc[nH]1", "500 to 1000 nM"),
    ("O[C@H]1CC[C@H](Nc2ccc3ncc(-c4cc5ccncc5s4)n3n2)CC1", "< 5000 nM"),
    ("COc1ccc(Nc2ccc3ncc(-c4ccc5ccccc5c4)n3n2)cc1OC", "< 5000 nM"),
    ("COc1ccc(Nc2ccc3ncc(-c4cc5cccc(C)c5[nH]4)n3n2)cc1OC", "< 5000 nM"),
    ("COc1ccc(Nc2ccc3ncc(-c4cc5ncccc5s4)n3n2)cc1OC", "< 5000 nM"),
]

Answer with the recorded IC50 of COc1cc2cc(-c3cnc4ccc(NCCC(C)CO)nn34)sc2cc1OC (stereo not shown) only.
< 100 nM

Give IC50 for the following compound: CC(CO)CCNc1ccc2ncc(-c3cc4ccccc4s3)n2n1 (stereo not shown)
100 to 500 nM

Determine from records and report IC50 for Cc1cccc2cc(-c3cnc4ccc(N[C@H]5CC[C@H](O)CC5)nn34)sc12
100 to 500 nM

# return recorded IC50 for entry O[C@H]1CC[C@H](Nc2ccc3ncc(-c4cc5cc(F)ccc5s4)n3n2)CC1
500 to 1000 nM

Recall and state the measured IC50 for COc1cc2cc(-c3cnc4ccc(N[C@H]5CC[C@](C)(O)CC5)nn34)sc2cc1OC .
< 100 nM

Recall and state the measured IC50 for COc1cc2cc(-c3cnc4ccc(-c5ccc(CN6CCN(C)CC6)cc5)nn34)sc2cc1OC .
500 to 1000 nM

Provide IC50 value for the following compound: COc1cc2cc(-c3cnc4ccc(NC5CCC[C@H](O)C5)nn34)sc2cc1OC (stereo in doubt)
< 100 nM

====

Recorded IC50, one value per entry.
molecular target: MLK-3 (Homo sapiens); experiment: Biochemical assay for the inhibition of kinase activity for MLK-3 (33P-ATP, HOTSPOT filter binding); settings: activated MLK-3 20 nM, ATP 50 μM, myelin basic protein 20 μM, 20 minutes room temperature

Query IC50 for COc1ccc(Nc2ccc3ncc(-c4cc5cccc(O)c5s4)n3n2)cc1OC
< 100 nM

====

biological target: MLK-3 (Homo sapiens, UniProt Q16584); assay: Biochemical assay for the inhibition of kinase activity for MLK-3 (33P-ATP, HOTSPOT filter binding); settings: activated MLK-3 20 nM, ATP 50 μM, myelin basic protein 20 μM, 20 minutes room temperature
Value Kind: IC50

# Smiles Str, IC50
rows = [
    ("OC[C@@H]1CCCN1c1ccc2ncc(-c3cc4ccccc4s3)n2n1", "< 5000 nM"),
    ("COc1ccc(Nc2ccc3ncc(-c4cc5cncc(O)c5s4)n3n2)cc1OC", "< 5000 nM"),
    ("COc1cc2cc(-c3cnc4ccc(N[C@H]5CC[C@H](O)CC5)nn34)sc2cc1OC", "< 100 nM"),
]

GET IC50 | system: MLK-3 (Homo sapiens, UniProt Q16584) | item: OCCCCNc1ccc2ncc(-c3ccc4ccccc4c3)n2n1
500 to 1000 nM

State recorded IC50 with MLK-3 (Homo sapiens, UniProt Q16584), entry COc1cc(Nc2ccc3ncc(-c4cc5ccccc5s4)n3n2)ccc1O , no comment.
100 to 500 nM

# assay system MLK-3 (Homo sapiens, UniProt Q16584): give IC50 of COc1cc2cc(-c3cnc4ccc(-c5ccc6[nH]ccc6c5)nn34)sc2cc1OC
< 100 nM

GET IC50 where system = MLK-3 (Homo sapiens, UniProt Q16584) and item = O=c1cccc(Nc2ccc3ncc(-c4cc5ccccc5s4)n3n2)[nH]1
< 5000 nM

GET IC50 | system: MLK-3 (Homo sapiens, UniProt Q16584) | item: COc1ccc2sc(-c3cnc4ccc(N[C@H]5CC[C@H](O)CC5)nn34)cc2c1
100 to 500 nM

Write down the reported IC50 (system: MLK-3 (Homo sapiens, UniProt Q16584)) of COc1cc(Nc2ccc3ncc(-c4cc5cccc(OC)c5s4)n3n2)ccc1OC(F)F
< 5000 nM

====

molecular target: MLK-3 (Homo sapiens, UniProt Q16584); assay: Biochemical assay for the inhibition of kinase activity for MLK-3 (33P-ATP, HOTSPOT filter binding); settings: activated MLK-3 20 nM, ATP 50 μM, myelin basic protein 20 μM, 20 minutes room temperature
# IC50 per record follows

Before answering, review these 2 worked examples.
# Molecule, IC50
measured = [
    ("OCCCCNc1ccc2ncc(-c3cc4ccccc4s3)n2n1 [Compound 110]", "100 to 500 nM"),
    ("COC(=O)C1CCCN(c2ccc3ncc(-c4cc5ccccc5s4)n3n2)C1 (stereo not drawn) [Compound 131]", "< 5000 nM"),
]

// switching to the query molecule
Respond only with IC50 recorded for Cc1cncc2cc(-c3cnc4ccc(N(C)[C@H]5CC[C@H](O)CC5)nn34)sc12 [Compound 221]
100 to 500 nM

====

# reported pIC50; entries follow
target: MLK-3 (Homo sapiens, UniProt Q16584); assay: Biochemical assay for the inhibition of kinase activity for MLK-3 (33P-ATP, HOTSPOT filter binding); settings: activated MLK-3 20 nM, ATP 50 μM, myelin basic protein 20 μM, 20 minutes room temperature
pIC50: −log10 of the molar value.

# Smiles Str, Experimental Result
rows = [
    ("COc1cc(Nc2ccc3ncc(-c4cc5cccc(OC(F)(F)F)c5s4)n3n2)ccc1OC(F)F", "> 5.30"),
    ("CCOc1ccc(Nc2ccc3ncc(-c4cc5cccc(OC)c5s4)n3n2)cc1OC", "6.30 to 7.00"),
    ("CO[C@H]1CC[C@H](N(C)c2ccc3ncc(-c4cc5cncc(C)c5s4)n3n2)CC1", "6.30 to 7.00"),
]

Next molecule, pIC50 to be filled in.
Enter measured pIC50, system MLK-3 (Homo sapiens, UniProt Q16584), for the molecule shown: COc1ccc(Nc2ccc3ncc(-c4cc5cccc(C)c5s4)n3n2)cc1OC
> 5.30
